method: ATG_M_32_CIS: Attagene CIS-FACTORIAL HepG2 Assay for M32 Transcription Factor (Internal Marker) (AID 2282949);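 also: background control marker of the multiplexed CIS panel rather than a real target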
condition.label: HepG2 Attagene cis-factorial M32 reporter, mRNA; actives raise or lower the signal
The source made the active and inactive calls. The calls were made as follows: active = hit-call score of the fitted dose curve at least 0.9, where 1 is the maximum; inactive = score below 0.9.
Could you please pick one outcome from this set? yes = active, no = inactive

// query For this compound, state the assay outcome: Clc1cc(Cl)c(Cl)c(Cl)c1Cl
// result no

// query Similarly, O=C(O)CCCC(=O)O ?
// result no

// query Similarly, CCCC1CCCC(=O)O1 (stereo unspecified) ?
// result no

// query Similarly, O=C(Nc1ccccc1)c1cc(Cl)ccc1O ?
// result no

// query Similarly, CCCCCCCCCCCC(C)=O ?
// result no

// query Similarly, CCCCCCCCCC[N+](C)(CCCCCCCCCC)CCC[Si](OC)(OC)OC ?
// result yes

====

tested.target: Retinoic acid receptor alpha (Homo sapiens) (UniProt P10276)
Sequence (P10276 whole entry, looked up): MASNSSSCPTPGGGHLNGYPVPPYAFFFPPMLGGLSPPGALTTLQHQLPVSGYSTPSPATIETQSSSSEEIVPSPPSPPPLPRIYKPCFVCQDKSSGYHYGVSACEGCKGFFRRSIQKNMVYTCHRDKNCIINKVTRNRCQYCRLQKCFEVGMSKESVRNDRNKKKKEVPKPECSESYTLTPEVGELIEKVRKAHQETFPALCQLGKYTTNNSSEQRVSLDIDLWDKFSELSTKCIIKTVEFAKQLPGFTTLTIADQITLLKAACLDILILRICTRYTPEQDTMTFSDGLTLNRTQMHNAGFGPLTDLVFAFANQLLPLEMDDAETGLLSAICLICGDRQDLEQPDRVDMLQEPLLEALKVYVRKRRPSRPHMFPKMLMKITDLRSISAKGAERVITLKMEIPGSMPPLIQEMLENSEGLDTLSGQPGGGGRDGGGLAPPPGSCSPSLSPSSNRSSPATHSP
method: ATG_DR5_RAR_CIS: Attagene CIS-FACTORIAL HepG2 Assay for human Retinoic Acid Receptor Alpha (RARE), DR5 submotif (AID 2282934)
condition.label: HepG2 Attagene cis-factorial RARE DR5 reporter, mRNA; actives raise or lower the signal
The source made the active and inactive calls. The calls were made as follows: active = hit-call score of the fitted dose curve at least 0.9, where 1 is the maximum; inactive = score below 0.9.
Could you please pick one outcome from this set? active, inactive

{"compound": "CC1=C(O)C(=O)C(C)O1 (stereo not drawn)", "class": "inactive"}
{"compound": "CC1(C)CC(O)CC(C)(C)N1[O]", "class": "inactive"}
{"compound": "CCc1cccc(C)c1N", "class": "inactive"}
{"compound": "CC1CC(=O)CC(C)(C)C1 (stereo not drawn)", "class": "inactive"}
{"compound": "C=CC(=O)OCC(C)OCC(C)OCC(C)OC(=O)C=C (stereo not drawn)", "class": "inactive"}

// query For this compound, state the assay outcome: CCCCCCCCCCCC(=O)N(C)CC(=O)O
// result inactive

// query Similarly, CC(=O)CCC=C(C)C ?
// result inactive

// query Similarly, C=CC(=O)OCCCCCCCC(C)C ?
// result active

====

tested.target: Aryl hydrocarbon receptor (Homo sapiens)
method: ATG_Ahr_CIS: Attagene CIS-FACTORIAL HepG2 Assay for human Aryl Hydrocarbon Receptor (Ahr) (AID 2282930)
condition.label: HepG2 AhR cis-factorial reporter transcription; actives raise or lower the signal
Calls of active or inactive are those of the source. How the source made its calls: active means hit-call score of the fitted dose curve at least 0.9, where 1 is the maximum; inactive means score below 0.9.
Could you please pick one outcome from this set? Y for active, N for inactive

Look over these answered cases.
{"compound": "CCCCOC(=O)C(C)CC (stereo unspecified)", "tested.target": "Aryl hydrocarbon receptor (Homo sapiens)", "class": "N"}
{"compound": "CCCCCCC=O", "tested.target": "Aryl hydrocarbon receptor (Homo sapiens)", "class": "N"}
{"compound": "COC(=O)CC(C)CCC=C(C)C (stereo unspecified)", "tested.target": "Aryl hydrocarbon receptor (Homo sapiens)", "class": "N"}
{"compound": "Cc1cccc(C(C)(C)C)c1O", "tested.target": "Aryl hydrocarbon receptor (Homo sapiens)", "class": "N"}
{"compound": "Nc1ccc(C(=O)OCCCOC(=O)c2ccc(N)cc2)cc1", "tested.target": "Aryl hydrocarbon receptor (Homo sapiens)", "class": "N"}
{"compound": "CC(C)(c1ccccc1)c1ccc(Nc2ccc(C(C)(C)c3ccccc3)cc2)cc1", "tested.target": "Aryl hydrocarbon receptor (Homo sapiens)", "class": "N"}
{"compound": "CCCCOCCOC(=O)COc1ccc(Cl)cc1Cl", "tested.target": "Aryl hydrocarbon receptor (Homo sapiens)", "class": "N"}
{"compound": "Cc1ccc(C)c(OCCCC(C)(C)C(=O)O)c1", "tested.target": "Aryl hydrocarbon receptor (Homo sapiens)", "class": "N"}

// query For this compound, state the assay outcome: CCc1cccc(CC)c1
// result N

// query Similarly, CC(C)=NNC(N)=S ?
// result N

// query Similarly, C1CNCCN1 ?
// result N

// query Similarly, CCCCC1C(=O)N(c2ccccc2)N(c2ccccc2)C1=O ?
// result N

// query Similarly, CC(C)C(=O)OCCc1ccccc1 ?
// result N

// query Similarly, N=C1C=CC(=C(c2ccc(N)cc2)c2ccc(N)cc2)C=C1 ?
// result Y

====

Read-out: Vascular cell adhesion molecule 1 (VCAM1), VCAM1 (gene 7412)
method: BSK_CASM3C_VCAM1: BioMAP Diversity Plus: CASM3C Assay for Vascular cell adhesion molecule 1 (VCAM1) Biomarker Activity (AID 2283055);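 also: VCAM-1 protein level quantified by ELISA on the cells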
condition.label: primary human coronary artery smooth muscle cells; actives raise or lower the signal
Activity calls are given as the source filed them. Rule for the calls: active = hit-call score of the fitted dose curve at least 0.9, where 1 is the maximum; inactive = score below 0.9.
Could you please pick one outcome from this set? Y for active, N for inactive

Look over these answered cases.
{"compound": "O=C(Cl)c1c(Cl)c(Cl)c(C(=O)Cl)c(Cl)c1Cl", "class": "N"}
{"compound": "c1ccc2c(c1)[nH]c1ccccc12", "class": "N"}
{"compound": "CC1(C)CC(O)CC(C)(C)N1[O]", "class": "N"}
{"compound": "C=CC(=O)OCCCCCCOC(=O)C=C", "class": "Y"}

// query For this compound, state the assay outcome: CCCCCCC=O
// result N

// query Similarly, CC(c1cc(C(C)(C)C)cc(C(C)(C)C)c1O)c1cc(C(C)(C)C)cc(C(C)(C)C)c1O ?
// result N

// query Similarly, CC=C(C)C(C)=O ?
// result N

// query Similarly, Cc1c(O)cccc1O ?
// result N

// query Similarly, CC=C(C)C=CC=C(C)C ?
// result Y

====

tested.target: CCAAT/enhancer-binding protein beta (Homo sapiens) (UniProt P17676)
Sequence (P17676 whole entry, looked up): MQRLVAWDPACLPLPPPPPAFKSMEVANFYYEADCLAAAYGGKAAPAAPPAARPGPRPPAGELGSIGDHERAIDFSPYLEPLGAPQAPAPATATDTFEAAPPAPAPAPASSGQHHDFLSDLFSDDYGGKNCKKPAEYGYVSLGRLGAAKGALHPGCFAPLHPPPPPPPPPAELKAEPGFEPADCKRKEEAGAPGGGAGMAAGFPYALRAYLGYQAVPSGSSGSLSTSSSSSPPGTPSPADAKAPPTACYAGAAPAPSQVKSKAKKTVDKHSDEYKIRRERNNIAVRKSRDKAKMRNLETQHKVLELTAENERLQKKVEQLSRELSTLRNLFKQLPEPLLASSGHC
method: ATG_C_EBP_CIS: Attagene CIS-FACTORIAL HepG2 Assay for human CCAAT/Enhancer Binding Protein (C/EBP) beta (AID 2282927)
condition.label: HepG2 Attagene cis-factorial transcription factor reporter; actives raise or lower the signal
The source made the active and inactive calls. Rule for the calls: active = hit-call score of the fitted dose curve at least 0.9, where 1 is the maximum; inactive = score below 0.9.
property.name: outcome

Example entries begin here.
{"molecule": "CCCC(CC)c1ccccc1 (stereo not given)", "outcome": "inactive"}
{"molecule": "Cc1ccc(C)c(OCCCC(C)(C)C(=O)O)c1", "outcome": "inactive"}
{"molecule": "CC(C)CC(=O)OCc1ccccc1", "outcome": "inactive"}
{"molecule": "CCC[Si](OC)(OC)OC", "outcome": "inactive"}
{"molecule": "CCNc1nc(NC(C)(C)C)nc(OC)n1", "outcome": "inactive"}
{"molecule": "CC1=CP(=O)(c2ccccc2)CC1 (stereo not given)", "outcome": "inactive"}
{"molecule": "CC=C(C)C=CC=C(C)C", "outcome": "inactive"}
{"molecule": "CCC1COC(=O)O1 (stereo not given)", "outcome": "inactive"}
{"molecule": "Clc1cc(Cl)c(Cl)c(Cl)c1Cl", "outcome": "inactive"}
{"molecule": "CCCCCCCOC(=O)c1ccc(O)cc1", "outcome": "inactive"}

// query Query (molecule): CCOC(=O)c1ccccc1C ; field requested: outcome
// result inactive

// query Similarly, COc1ccc(C(=O)c2ccccc2)c(O)c1 ?
// result inactive

// query Similarly, CC(CCC(=O)O)(c1ccc(O)cc1)c1ccc(O)cc1 ?
// result inactive

// query Similarly, C=C(C)[C@@H]1CC=C(C)CC1 ?
// result inactive

// query Similarly, Cc1c(C(=O)c2c[nH]n(C)c2=O)ccc(S(C)(=O)=O)c1C1=NOCC1 ?
// result inactive

// query Similarly, CCCCCC[C@@H](O)C/C=C\CCCCCCCC(=O)OCC(O)CO (stereo not given in full) ?
// result inactive

// query Similarly, C=C(C)OC(C)=O ?
// result inactive

// query Similarly, CC1OC(=O)C(C)OC1=O (stereo not given) ?
// result inactive

// query Similarly, CN(C)c1ccc2nc3ccc(=[N+](C)C)cc-3sc2c1 ?
// result inactive

// query Similarly, CCOC(=O)[C@H](O)[C@@H](O)C(=O)OCC ?
// result inactive

// query Similarly, C[N+](C)(C)CCCNS(=O)(=O)C(F)(F)C(F)(F)C(F)(F)C(F)(F)C(F)(F)C(F)(F)C(F)(F)C(F)(F)F ?
// result inactive

// query Similarly, CCCCC(C=O)CC (stereo not given) ?
// result inactive

// query Similarly, CC(=O)CCC=C(C)C ?
// result inactive

// query Similarly, CC1(C)CC(O)CC(C)(C)N1[O] ?
// result inactive

====

Read-out: Monokine induced gamma interferon (MIG), CXCL9 (gene 4283)
method: BSK_3C_MIG: BioMAP Diversity Plus: 3C Assay for Monokine induced gamma interferon (MIG) Biomarker Activity (AID 2283021)
condition.label: primary human endothelial cells (HUVEC); actives raise or lower the signal
Activity calls are given as the source filed them. Rule for the calls: active = hit-call score of the fitted dose curve at least 0.9, where 1 is the maximum; inactive = score below 0.9.
Could you please pick one outcome from this set? y for active, n for inactive

Look over these answered cases.
{"compound": "Cc1c(O)cccc1O", "class": "n"}
{"compound": "CCCCCCCCCCCC(C)=O", "class": "y"}

Would you kindly look at the next entry?
// query For this compound, state the assay outcome: CC1(C)CC(O)CC(C)(C)N1[O]
// result n
